These data points were gathered from PubChem BioAssay.

Assay: probe aLefty2 binding to arrayed compounds – biochemical, biotinylated probe, 635/667 nm fluorescence, primary screen (AID 1094);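 note: score merges spot fluorescence near 667 nm with spot signal-to-noise ratio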
Conditions: small-molecule microarray, higher = more signal
assay_readout: composite z-score

- compound: "[N-]=[N+]=Nc1ccccc1[C@@H]1OC(c2ccc(OCCCO)cc2)=N[C@]1(CCS(=O)(=O)c1ccccc1)C(=O)NCC(O)CO (stereo partly drawn)"
  observed_result: -0.116
- compound: "COC(=O)[C@@]1(Cc2ccccc2)[C@H]2c3cc(C(=O)N4CCCC4)n(Cc4ccc(OC)c(OC)c4)c3C[C@H]2CN1C(=O)c1ccccc1"
  observed_result: 0.666

Now for the compound whose composite z-score we want.
q: Please give the documented composite z-score of C=CCOC(=O)[C@@H]1[C@H]2C(=O)O[C@H](c3ccccc3)[C@H](c3ccccc3)N2[C@H](c2ccc(OCCOC(=O)[C@H]3C[C@H]4C(=O)NCC(=O)N4[C@H]3c3cccc(OCCO)c3)cc2)[C@@]12C(=O)Nc1ccc(I)cc12
a: -0.0809

* * *

Biological target: Dihydroorotate dehydrogenase (quinone), mitochondrial (Plasmodium falciparum (isolate 3D7)) (UniProt Q08210)
Sequence (Q08210 whole entry, looked up): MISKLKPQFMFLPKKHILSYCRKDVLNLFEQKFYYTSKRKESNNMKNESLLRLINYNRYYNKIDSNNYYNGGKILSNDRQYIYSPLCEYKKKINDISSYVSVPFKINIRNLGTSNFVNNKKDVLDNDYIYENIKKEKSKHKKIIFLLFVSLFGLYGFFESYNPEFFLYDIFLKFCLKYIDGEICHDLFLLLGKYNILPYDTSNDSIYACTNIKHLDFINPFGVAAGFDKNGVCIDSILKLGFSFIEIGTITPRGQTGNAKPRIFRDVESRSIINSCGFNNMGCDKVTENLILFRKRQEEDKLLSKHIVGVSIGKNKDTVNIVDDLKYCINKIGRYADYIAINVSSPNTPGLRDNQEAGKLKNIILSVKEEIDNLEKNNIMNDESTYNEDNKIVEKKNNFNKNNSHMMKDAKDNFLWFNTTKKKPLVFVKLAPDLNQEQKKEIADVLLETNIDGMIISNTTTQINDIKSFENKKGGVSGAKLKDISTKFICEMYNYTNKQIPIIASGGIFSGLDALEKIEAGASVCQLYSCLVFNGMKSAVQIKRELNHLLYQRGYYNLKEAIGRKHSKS
Test: inhibition of P. falciparum DHODH – biochemical, C-terminal His tag, absorbance 600 nm, primary screen (AID 1175);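 note: recombinant parasite enzyme with a five histidine tag at its C terminus; test concentration not given here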
Conditions: PfDHODH enzyme, DCIP absorbance 600 nm; higher = more signal, called active from +8 up or from −8 down
Activity calls are given as the source filed them.
assay_readout: composite z-score

For orientation, consider the following solved cases.
- compound: "C=CC[C@]1(C(=O)NCC(O)CO)COC(c2ccc(OCCCO)cc2)=N1 (some centres undefined)"
  composite z-score: "0.233 (inactive)"
- compound: "COCCCNC(=O)[C@@]1(Sc2ccc(C)cc2)CC(=O)N(Cc2ccccc2C(F)(F)F)[C@@H]1c1ccc(CO)cc1I"
  composite z-score: "0.0681 (inactive)"
- compound: "COCCCNC(=O)[C@@]1(CCC(=O)OC(C)(C)C)COC(c2ccc(OCCCO)cc2)=N1"
  composite z-score: "-0.176 (inactive)"

Now for the compound whose composite z-score we want.
q: Please give the documented composite z-score of COC(=O)[C@@]1(Cc2ccc(OC)cc2)[C@H]2c3cc(C(=O)N(C)C)[nH]c3C[C@H]2CN1C(=O)c1ccccc1
a: -0.309 (inactive)

* * *

Please go through the items and note down their z-score.
Assay: changes in parasitized red cell lysis, either direction – P. falciparum Indochina, OD700, 3 h, PSAC antagonist project, primary screen (AID 1156)
Settings: P. falciparum-infected erythrocytes, osmotic lysis, higher = more signal, called active from +8 up or from −8 down
Give bare numbers.

For orientation, consider the following solved cases.
- compound: "COc1ccc([Si](C)(C)[C@@H]2[C@@H](CC(=O)N3CCC[C@H]3CO)O[C@]3(C(=O)N(Cc4cccc(N5CCCCC5=O)c4)c4ccccc43)[C@H]2C)cc1"
  observed_result: -1.02
- compound: "O=C1[C@H]2C=C(I)[C@H](C[C@@H]2c2ccccc2)[C@@]12CO2"
  observed_result: 0.402
- compound: "O=C(NCc1ccccc1)[C@@H]1c2ccccc2C(=O)N(Cc2cc(C(F)(F)F)cc(C(F)(F)F)c2)[C@H]1c1ccc(CO)cc1"
  observed_result: 2.48
- compound: "O=C(NCc1ccc(F)cc1)[C@H]1C[C@H]2C(=O)N3CCC[C@H]3C(=O)N2[C@H]1c1ccc(O)cc1"
  observed_result: -3.27
- compound: "COCCCNC(=O)[C@@]1(Sc2ccc(C)cc2)CC(=O)N(Cc2ccccc2C(F)(F)F)[C@@H]1c1ccc(CO)cc1I"
  observed_result: 0.385

Here are 2 compounds. What values of z-score were reported for them?
1. COC(=O)C(CC#Cc1ccc2c(c1)[C@]1(C(=O)N2)[C@H](c2ccc(OCCO)cc2)N2[C@H](c3ccccc3)[C@H](c3ccccc3)OC(=O)[C@H]2[C@@H]1C(=O)N1CCCCCCC1)C(=O)OC
2. CC(C)=CCCC(C)=CC(O)C1C=CC2C(=O)NC(=O)C2N1Nc1ccc(Cl)cc1Cl (stereo not drawn)

a:
0.309
-0.519

Here are 6 compounds. What values of z-score were reported for them?
1. CC(=O)NCCCC[C@@H]1NC(=O)[C@H]2C[C@@H](C(=O)NCCCCCCNC(=O)CS)[C@@H](c3cccc(OCCO)c3)N2C1=O
2. CO[C@H]1O[C@H](CO)[C@@H](OC(=O)Nc2ccc3c(c2)OCO3)[C@H](OC(=O)Nc2ccccc2-c2ccccc2)[C@H]1OC(=O)Nc1ccccc1-c1ccccc1
3. CO[C@H]1O[C@H](CO)[C@@H](OC(=O)Nc2ccccc2)[C@H](OC(=O)Nc2ccccc2)[C@H]1OC(=O)Nc1ccccc1
4. C[C@@H]1ON(c2ccc(I)cc2)[C@H](c2cccc(NC(=O)OCC3c4ccccc4-c4ccccc43)c2)[C@H]1C(=O)N1C(=O)OC[C@H]1Cc1ccccc1
5. O=C1OCCC=C[C@H]2OC34C=CCN(c5ccc6ccccc6c5)C(=O)[C@H]3N(CCO)C(=O)[C@@H]4C12 (stereo partly drawn)
6. C=CCN1C(=O)[C@@]2(O[C@@H](CCn3cc([C@H](O)c4ccccc4)nn3)[C@H]([Si](C)(C)c3ccc(OC)cc3)[C@H]2C)c2cc(N3C(=O)c4cccc5cccc3c45)ccc21

a:
1: 1.18; 2: -0.124; 3: 0.406; 4: 0.0181; 5: 1.11; 6: 0.519

* * *

Tested on: Human papillomavirus type 1a protein E7 (residues 44-93)
Experiment: small molecules binding HPV E7 44-93 – biochemical, small-molecule microarray, residues 44-93, 635 nm fluorescence, primary screen (AID 1108);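 note: E7 fragment applied at 1 µg/mL in TBST for 1 h at 4 C; score combines spot fluorescence with its signal to noise ratio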
Conditions: fluorescence 635 nm, higher = more signal
Please go through the items and note down their composite z-score.

For orientation, consider the following solved cases.
- compound: "Cc1ccc(S[C@]2(C(=O)NCCCN(C)C)CC(=O)N(Cc3ccccc3C(F)(F)F)[C@@H]2c2ccc(CO)cc2I)cc1"
  composite z-score: 0.545
- compound: "COC(=O)[C@@]1(Cc2ccccc2)N=C(c2ccc(OCCCO)cc2)O[C@H]1c1ccccc1CN=[N+]=[N-]"
  composite z-score: 1.36
- compound: "CC(C)N1C(=O)c2ccccc2[C@](C)(C(=O)NCC(F)(F)F)[C@@H]1c1ccc(CO)cc1"
  composite z-score: -0.39
- compound: "C[C@@H]1ON(c2ccc(I)cc2)[C@H](c2cccc(NC(=O)OCC3c4ccccc4-c4ccccc43)c2)[C@H]1C(=O)N1C(=O)OC[C@H]1Cc1ccccc1"
  composite z-score: 0.531
- compound: "[N-]=[N+]=Nc1ccccc1[C@@H]1OC(c2ccc(OCCCO)cc2)=N[C@]1(CCS(=O)(=O)c1ccccc1)C(=O)NCC(O)CO (some centres undefined)"
  composite z-score: 0.535
- compound: "COC(=O)[C@@]1(Cc2ccc(F)cc2)[C@H]2c3cc(C(=O)N4CCCC4)n(CCc4ccccn4)c3C[C@H]2CN1C(=O)c1ccccc1"
  composite z-score: 0.724
- compound: "CC(C)(C)OC(=O)CC[C@]1(C(=O)NCC(O)CO)N=C(c2ccc(OCCCO)cc2)O[C@H]1c1ccccc1N=[N+]=[N-] (some centres undefined)"
  composite z-score: 0.438
- compound: "CC(C)C[C@H]1NC(=O)C([C@@H](C)OCc2ccccc2)NC(=O)[C@@]23C(=O)N[C@@H](Cc4ccccc4)C2[C@H](C)[C@@]2(C)O[C@H]2C3/C=C/C/C=C\\CNC1=O (some centres undefined)"
  composite z-score: 0.566

Here are 6 compounds. What values of composite z-score were reported for them?
1. O=C1OCCC=C[C@H]2OC34C=CCN(c5ccc6ccccc6c5)C(=O)[C@H]3N(CCO)C(=O)[C@@H]4C12 (some centres undefined)
2. COC(=O)[C@@]1(Cc2ccc(OC)cc2)[C@H]2c3cc(C(=O)N4CCCC4)n(CCn4cc([N+](=O)[O-])nc4C)c3C[C@H]2CN1C(=O)c1ccccc1
3. COc1cc(C(O)C2C=CC3C(=O)N(c4ccccc4)C(=O)C3N2Nc2ccccc2F)cc(OC)c1OC (centres undefined)
4. COCCOC(=O)N1C(=O)[C@@]2(c3cc(C#CCC(C(=O)OC)C(=O)OC)ccc31)[C@H](C(=O)Nc1nc3ccccc3s1)[C@H]1C(=O)O[C@H](c3ccccc3)[C@H](c3ccccc3)N1[C@@H]2c1ccc(OCCO)cc1
5. CN1C(=O)C2C(C3CC3)C=C3CN(Cc4cccc(Cl)c4)[C@@H]([C@@H](O)Cc4ccccc4)C3C2C1=O (some centres undefined)
6. CC(C)=CCCC(C)=CC(O)C1C=CC2C(=O)NC(=O)C2N1Nc1ccccn1 (centres undefined)

a:
-0.988
0.0832
1.48
0.783
1.36
1.13

* * *

Test: growth effects on S. cerevisiae YJM789 – YJM789 clinical isolate, OD600, 24 h, basal, primary screen (AID 1089);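 note: growth of clinical yeast isolate S. cerevisiae YJM 789 seeded 1000 cells per well; test concentration not given here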
Conditions: called active from +8 up or from −8 down
Active and inactive are the calls of the source.
Hi! Could you answer with just one of these? 1.0 for active, 0.0 for inactive

Would you please look over these solved cases?
- molecule: "C=CCNC(=O)[C@H]1[C@@H]2C(=O)O[C@@H](c3ccccc3)[C@@H](c3ccccc3)N2[C@@H](c2ccc(OCCO)cc2)[C@]12C(=O)Nc1ccc(C#CC3(O)CCCCCC3)cc12"
  label: 0.0
- molecule: "Cc1ccc(C(C)CC(O)C2C=CC3C(=O)N(C)C(=O)C3N2Nc2ccccc2)o1 (centres undefined)"
  label: 0.0

Now consider a different molecule.
q: Test call for this molecule, please: COC(=O)[C@@]1(Cc2ccc(F)cc2)[C@H]2c3cc(C(=O)N4CCCC4)n(Cc4ccccn4)c3C[C@H]2CN1C(=O)c1ccccc1
a: 0.0
